Value source: patent US20150368338A1

Biological target: IFN-αWA (human, UniProt P05015 24-189)
Assay: cell-based or functional assay
valueKind: IC50 (pM), ISRE assay
Kindly provide the numeric value in pM only, without the unit symbol.

Ask: Specify measured IC50 (pM), ISRE assay for IFWM3410 (antibody, IgG1, V domains shown) VH: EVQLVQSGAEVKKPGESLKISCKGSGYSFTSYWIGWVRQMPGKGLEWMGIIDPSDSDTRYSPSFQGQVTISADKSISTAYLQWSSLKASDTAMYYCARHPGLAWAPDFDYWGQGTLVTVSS VL: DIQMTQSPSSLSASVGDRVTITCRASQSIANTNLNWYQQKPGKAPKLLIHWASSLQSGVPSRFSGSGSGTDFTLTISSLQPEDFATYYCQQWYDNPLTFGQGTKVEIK .
Reply: 538
